Target: BRD4 (BDI_K57-E168) (Homo sapiens, UniProt O60885)
Construct: BD1: amino acids K57-E168; made in house
Test: TR-FRET bromodomain binding assay, first bromodomain of BRD4
Details: TR-FRET assay protocol G (compound 0.92 μM-15 pM); 100 nM probe
A collection of compounds and their measured Ki
Dear colleague, please return just the value in nM, with no unit written.

QUERY: GET Ki where system = BRD4 (BDI_K57-E168) (Homo sapiens, UniProt O60885) and item = CCOC(=O)C1c2c[nH]c3c(=O)n(C)cc(c23)-c2cc(CS(C)(=O)=O)ccc2N1c1ccc(F)cc1 (stereo not drawn) [Example 84]
RESULT: 2.24

QUERY: Report value only: Ki, BRD4 (BDI_K57-E168) (Homo sapiens, UniProt O60885), CNC(=O)CCC1c2c[nH]c3c(=O)n(C)cc(c23)-c2cc(CS(C)(=O)=O)ccc2N1c1ccc(F)cc1F (stereo not drawn) [Example 118]
RESULT: 12.6

QUERY: Give measured Ki for Cn1cc2c3c(c[nH]c3c1=O)CN(c1ccc(C#N)cc1)c1ccc(CS(C)(=O)=O)cc1-2 [Example 192] (BRD4 (BDI_K57-E168) (Homo sapiens, UniProt O60885)).
RESULT: 1.65

QUERY: Print BRD4 (BDI_K57-E168) (Homo sapiens, UniProt O60885) Ki for Cn1cc2c3c(c[nH]c3c1=O)CN(C(=O)Oc1ccccc1)c1ccc(CS(C)(=O)=O)cc1-2 [Example 93] .
RESULT: 2.84

QUERY: Give Ki; test system BRD4 (BDI_K57-E168) (Homo sapiens, UniProt O60885); compound Cn1cc2c3c(c[nH]c3c1=O)CN(c1ncc(F)cc1F)c1ccc(CS(C)(=O)=O)cc1-2 [Example 213]
RESULT: 0.65

QUERY: Identify measured Ki obtained with BRD4 (BDI_K57-E168) (Homo sapiens, UniProt O60885) for Cn1cc2c3c(c[nH]c3c1=O)CN(C(=O)Nc1ccc(F)c(C(F)(F)F)c1)c1ccc(CS(C)(=O)=O)cc1-2 [Example 71] .
RESULT: 30.4

QUERY: State the measured Ki (BRD4 (BDI_K57-E168) (Homo sapiens, UniProt O60885)) of CCNC(=O)c1[nH]c2c(=O)n(C)cc3c2c1CN(c1ccc(Cl)cc1)c1ccccc1-3 [Example 127]
RESULT: 2.68

QUERY: Give Ki only, for COc1ccccc1OC(=O)N1Cc2c[nH]c3c(=O)n(C)cc(c23)-c2cc(CS(C)(=O)=O)ccc21 [Example 95] , using BRD4 (BDI_K57-E168) (Homo sapiens, UniProt O60885) data.
RESULT: 2.18

---

Molecular target: BRD4 (BDI_K57-E168) (Homo sapiens, UniProt O60885)
Construct: BD1: amino acids K57-E168; made in house
Experiment: TR-FRET bromodomain binding assay, first bromodomain of BRD4
Conditions: TR-FRET assay protocol G (compound 0.92 μM-15 pM); 100 nM probe
pKi: −log10 of the molar value.
Where pKi equals or exceeds 8, the correct label is Criterion met; where it does not, the label is Criterion not met.

// below: answered molecules
molecule | assigned category
Cn1cc2c3c(c[nH]c3c1=O)C(C(=O)NCC1CC1)N(c1ccc(F)cc1F)c1ccc(CS(C)(=O)=O)cc1-2 (centres unmarked) | Criterion not met
Cc1cnc2c(c1)-c1cn(C)c(=O)c3[nH]cc(c13)C(c1ccccc1)N2c1ccc(F)cc1 (centres unmarked) | Criterion not met
CN1CCN(C(=O)C2c3c[nH]c4c(=O)n(C)cc(c34)-c3cc(CS(C)(=O)=O)ccc3N2c2ccc(F)cc2)CC1 (centres unmarked) | Criterion not met
Cn1cc(-c2[nH]c3c(=O)n(C)cc4c3c2CN(c2ccccn2)c2ccc(S(C)(=O)=O)cc2-4)cn1 | Criterion met
Cn1cc2c3c(c[nH]c3c1=O)CN(C(=O)NCC1CCCCC1)c1ccc(CS(C)(=O)=O)cc1-2 | Criterion not met

QUERY: Threshold query (pKi >= 8) on Cn1cc2c3c(c[nH]c3c1=O)CN(C(=O)c1ccc3ccccc3c1)c1ccc(CS(C)(=O)=O)cc1-2
RESULT: Criterion not met

QUERY: Reported pKi at or above 8? CC1OCCC1N1Cc2c[nH]c3c(=O)n(C)cc(c23)-c2cc(CS(C)(=O)=O)ccc21 (centres unmarked)
RESULT: Criterion met

QUERY: Hello, I need to know if CC(C)CN1Cc2c[nH]c3c(=O)n(C)cc(c23)-c2cc(CS(C)(=O)=O)ccc21 has measured pKi not below 8. Thanks!
RESULT: Criterion met

QUERY: Could you verify whether the entry COC1CCN(C(=O)C2c3c[nH]c4c(=O)n(C)cc(c34)-c3cc(CS(C)(=O)=O)ccc3N2c2ccc(F)cc2)CC1 (centres unmarked) shows pKi of no less than 8?
RESULT: Criterion not met
